test system: Peronospora parasitica; experiment: In vivo test Peronospora parasitica (downy mildew on cabbage), protective; details: application rate 1200 g/ha, evaluation 5 days after infection
Consider the following molecules and their measured Activity [%] (efficacy) readings.
Please give a number only; it is taken to be in %.

CCOCCCNC(=O)C1(C)CC(c2cc(Cl)cc(Cl)c2)=NO1 (stereo not shown) :: 97
CCn1cc(CNC(=O)C2(C)CC(c3cc(C)cc(C)c3)=NO2)c(C)n1 (stereo not shown) :: 100
O=C(NC1CC1)C1(C(F)(F)F)CC(c2cc(Cl)cc(Cl)c2)=NO1 (stereo not shown) :: 100
CCCn1cc(CNC(=O)C2(C)CC(c3cc(Cl)cc(Cl)c3)=NO2)c(C)n1 (stereo not shown) :: 100
CCn1cc(CNC(=O)C2(C)CC(c3cc(F)cc(Cl)c3)=NO2)c(C)n1 (stereo not shown) :: 100

## Task State its Activity [%] (efficacy): CCC1(C(=O)NC(C)C)CC(c2cc(Cl)cc(Cl)c2)=NO1 (stereo not shown)
## Result 97

## Task Please list Activity [%] (efficacy) recorded for the molecule COCCCCNC(=O)C1(C)CC(c2cc(Cl)cc(Cl)c2)=NO1 (stereo not shown)
## Result 100

====

// Activity [%] (efficacy) lookup, one value per entry
tested on: Peronospora parasitica; experiment: In vivo test Peronospora parasitica (downy mildew on cabbage), protective; settings: application rate 1200 g/ha, evaluation 5 days after infection
Supply the numeric figure in %, leaving out any unit text.

Worked set:
CCn1cc(CNC(=O)C2(C)CC(c3cccc(Cl)c3)=NO2)c(C)n1 (centres unmarked) :: 100
CCC(C)NC(=O)C1(C)CC(c2cc(Cl)cc(Cl)c2)=NO1 (mixture of isomers) :: 100
CCn1cc(CNC(=O)C2(CC)CC(c3cc(Cl)cc(Cl)c3)=NO2)cn1 (centres unmarked) :: 100
CCC1(C(=O)Nc2cc(C)nn2C)CC(c2cc(Cl)cc(Cl)c2)=NO1 (centres unmarked) :: 90

## Task Determine its reported Activity [%] (efficacy): CC(C)NC(=O)C1(C2CC2)CC(c2cc(Cl)cc(Cl)c2)=NO1 (centres unmarked)
## Result 96

## Task Please look at this compound and report its Activity [%] (efficacy): CC1(C(=O)NCc2ccncc2)CC(c2cc(Cl)cc(Cl)c2)=NO1 (centres unmarked)
## Result 81

## Task Identify measured Activity [%] (efficacy) associated with Cn1nccc1CNC(=O)C1(C)CC(c2cc(Cl)cc(Cl)c2)=NO1 (centres unmarked)
## Result 88

## Task # return recorded Activity [%] (efficacy) for entry CC(C)NC(=O)C1(C)CC(c2cc(F)cc(Cl)c2)=NO1 (centres unmarked)
## Result 100

====

test system: Phytophthora infestans; assay type: in vivo; conditions: Phytophthora infestans on tomato, application rate 1200 g/ha, evaluation 5 days after infection
Property label: Activity [%] (efficacy) (%)
The answer is to be given in %; state only the numeric part.

CCn1cc(CNC(=O)C2(C3CC3)CC(c3cc(Cl)cc(Cl)c3)=NO2)c(C)n1 (centres unmarked) :: 75
CCn1cc(CNC(=O)C2(C)CC(c3cccc(Cl)c3)=NO2)c(C)n1 (centres unmarked) :: 100
CCn1cc(CNC(=O)C2(C)CC(c3cc(F)cc(Cl)c3)=NO2)c(C)n1 (centres unmarked) :: 100

Kindly consider the entry below.
## Task Look up Activity [%] (efficacy) of COCCCCNC(=O)C1(C)CC(c2cc(Cl)cc(Cl)c2)=NO1 (centres unmarked) and report it.
## Result 70

====

test system: Mycosphaerella graminicola; assay: In vivo test Mycosphaerella graminicola (wheat); conditions: Mycosphaerella graminicola on wheat, application rate 500 g/ha, evaluation 21-28 days after inoculation
Property label: Activity [%] (efficacy) (%)
Answer format: numeric, % implied, no suffix.

CNC(=O)C1(C)CC(c2cc(Br)cc(Br)c2)=NO1 (stereo not drawn) :: 98
CCOC(=O)Cc1ccc(NC(=O)C2(C)CC(c3cc(Cl)cc(Cl)c3)=NO2)cc1 (stereo not drawn) :: 91
Cc1cc(Cl)cc(C2=NOC(C)(C(=O)NCC(F)(F)F)C2)c1 (stereo not drawn) :: 100
Cc1cc(Cl)cc(C2=NOC(C)(C(=O)NC3CC3)C2)c1 (stereo not drawn) :: 98
CC(C)NC(=O)C1(C)CC(c2cc(Cl)cc(OCC(F)(F)F)c2)=NO1 (stereo not drawn) :: 95

## Task Note Activity [%] (efficacy) for the molecule shown: COC(=O)Cc1cccc(NC(=O)C2(C)CC(c3cc(Cl)cc(Cl)c3)=NO2)c1 (stereo not drawn)
## Result 91

## Task Give the value of Activity [%] (efficacy) reported for the following: CC1(C(=O)NCCCn2cccn2)CC(c2cc(Cl)cc(Cl)c2)=NO1 (stereo not drawn)
## Result 97

## Task Note down Activity [%] (efficacy) recorded for Cc1cc(CNC(=O)C2(C)CC(c3cc(Cl)cc(Cl)c3)=NO2)n(C)n1 (stereo not drawn)
## Result 75

## Task Note down Activity [%] (efficacy) recorded for CCn1cc(CNC(=O)C2(CC)CC(c3cc(Cl)cc(Cl)c3)=NO2)c(C)n1 (stereo not drawn)
## Result 96

## Task Provide measured Activity [%] (efficacy) value, entry: CC1(C(=O)NC2CC2)CC(c2cc(Cl)cc(Br)c2)=NO1 (stereo not drawn)
## Result 100

====

Examples of compounds with documented Activity [%] (efficacy) follow.
tested on: Alternaria brassicae; test: In vivo test Alternaria brassicae (salad radish); parameters: concentration or dose not given beside the values; conditions: Alternaria brassicae on salad radish, application rate not given, evaluation 6-7 days after inoculation
// units = %; emit number, no label

CC1(C(=O)NCC(F)(F)F)CC(c2cc(Cl)cc(Cl)c2)=NO1 (stereo not shown) [Example 6.377] :: 77

## Task Report measured Activity [%] (efficacy); entry is CC1(C(=O)NC2CC2)CC(c2cc(Cl)cc(Cl)c2)=NO1 (stereo not shown) [Example 6.054]
## Result 94

## Task // fetch Activity [%] (efficacy) given entry C#CC(C)NC(=O)C1(C)CC(c2cc(Cl)cc(Cl)c2)=NO1 (single isomer, unassigned) [Example 6.216]
## Result 82

## Task Provide one value: measured Activity [%] (efficacy) of CC1(C(=O)NCC2CC2)CC(c2cc(Cl)cc(Cl)c2)=NO1 (stereo not shown) [Example 6.431]
## Result 77

## Task Given the compound CCC1(C(=O)NCC(F)(F)F)CC(c2cc(Cl)cc(Cl)c2)=NO1 (stereo not shown) [Example 7.359] , write its reported Activity [%] (efficacy).
## Result 86

## Task Write down Activity [%] (efficacy) measured for item CC(C)(C)NC(=O)C1(C)CC(c2cc(Cl)cc(Cl)c2)=NO1 (stereo not shown) [Example 6.117]
## Result 73

## Task Recall and state the measured Activity [%] (efficacy) for CC(C)NC(=O)C1(C)CC(c2cc(Cl)cc(C(F)(F)F)c2)=NO1 (stereo not shown) [Example 6.188] .
## Result 73

## Task For the compound CC(C)NC(=O)C1(C)CC(c2cc(Cl)cc(Cl)c2)=NO1 (stereo not shown) [Example 6.165] , report Activity [%] (efficacy).
## Result 95

## Task Dear colleague, please send me the reported Activity [%] (efficacy) for CCC(C)NC(=O)C1(C)CC(c2cc(Cl)cc(Cl)c2)=NO1 (mixture of isomers) [Example 6.217] when you can.
## Result 81

## Task Read off the recorded Activity [%] (efficacy) for CC1(C(=O)NC2CC2)CC(c2cc(Cl)cc(Br)c2)=NO1 (stereo not shown) [Example 6.064]
## Result 91

====

tested on: Mycosphaerella graminicola; experiment: In vivo test Mycosphaerella graminicola (wheat); conditions: Mycosphaerella graminicola on wheat, application rate 500 g/ha, evaluation 21-28 days after inoculation
Property label: Activity [%] (efficacy) (%)
# number only, unit % dropped from output

CCC1(C(=O)NCC(F)(F)F)CC(c2cc(Cl)cc(Cl)c2)=NO1 (stereo not shown) :: 100

## Task Check the records and state Activity [%] (efficacy) for CC(C)n1cc(CNC(=O)C2(C)CC(c3cc(Cl)cc(Cl)c3)=NO2)c(Cl)n1 (stereo not shown)
## Result 92

## Task For the molecule Cn1cc(CNC(=O)C2(C)CC(c3cc(Cl)cc(Cl)c3)=NO2)cn1 (stereo not shown) , report Activity [%] (efficacy).
## Result 75

## Task Indicate the recorded Activity [%] (efficacy) value for this molecule: CCOC(=O)CCNC(=O)C1(C)CC(c2cc(Cl)cc(Cl)c2)=NO1 (stereo not shown)
## Result 98

## Task Retrieve Activity [%] (efficacy) measured for CCNC(=O)C1(C)CC(c2cc(C)cc(Cl)c2)=NO1 (stereo not shown) and print it.
## Result 100

## Task Check the records and state Activity [%] (efficacy) for CCOC(=O)C(C)CNC(=O)C1(C)CC(c2cc(Cl)cc(Cl)c2)=NO1 (stereo not shown)
## Result 88

## Task Give the reported value of Activity [%] (efficacy) for this record: CCCn1cc(CNC(=O)C2(CC)CC(c3cc(Cl)cc(Cl)c3)=NO2)c(C)n1 (stereo not shown)
## Result 79

Source: patent US9078442B2
